Can you tell me pIC50 for the items I'm about to list?
assay.details: Glycomer activity determined as growth inhibition of human glioblastoma LNZ308 cells
Format: functional, cell-based
measurement.conditions: Homo sapiens, LNZ308
pIC50: −log10 of the molar value.

Challenge: Looking for the measured pIC50 of "C=CCO[C@@H]1[C@H](O)[C@H](Oc2ccc(Br)cc2)O[C@@H](COCc2ccccc2)[C@H]1O" , can you help?
Response given: < 4.30

Challenge: Looking for the measured pIC50 of C=CCOC1C(O)C(CNS(=O)(=O)c2cccc(C(F)(F)F)c2)OC(Oc2ccc(I)cc2)C1OC(=O)CCC (stereo in doubt; 10b) , can you help?
Response given: 4.76

Challenge: Looking for the measured pIC50 of C=CCOC1C(O)C(CNS(=O)(=O)c2cccc(C(F)(F)F)c2)OC(Oc2ccc(I)cc2)C1OC(=O)C(C)C (stereo unspecified) , can you help?
Response given: 5.12

Challenge: Looking for the measured pIC50 of "CCCC(=O)O[C@@H]1[C@H](Oc2ccc(I)cc2)O[C@@H](COCc2ccccc2)[C@@H](O)[C@@H]1OC" , can you help?
Response given: < 4.30

Challenge: Looking for the measured pIC50 of "C=CCO[C@H]1[C@H](O)[C@H](COS(=O)(=O)c2cccc(C(F)(F)F)c2)O[C@@H](Oc2ccc(Br)cc2)[C@H]1OC(=O)CCC" , can you help?
Response given: < 4.30

Challenge: Looking for the measured pIC50 of "C=CCO[C@H]1[C@H](O)[C@H](COCc2ccccc2)O[C@@H](Oc2ccc(OC)cc2)[C@H]1OC(C)=O" , can you help?
Response given: < 4.30

* * *

assay.details: Glycomer activity determined as growth inhibition of human glioblastoma LNZ308 cells
Format: functional, cell-based
measurement.conditions: Homo sapiens, LNZ308
pIC50: −log10 of the molar value.
assay.readout: pIC50

Challenge: Looking for the measured pIC50 of "C=CCO[C@H]1[C@H](O)[C@H](COCc2ccccc2)O[C@@H](Oc2ccc(I)cc2)[C@H]1OC(=O)C(C)C" , can you help?
Response given: < 4.30

Challenge: Looking for the measured pIC50 of "CCCO[C@@H]1[C@H](O)[C@H](Oc2ccccc2)O[C@@H](COCc2ccccc2)[C@H]1O" , can you help?
Response given: < 4.30

Challenge: Looking for the measured pIC50 of "CCCC(=O)O[C@@H]1[C@H](Oc2ccc(I)cc2)O[C@@H](COCc2ccccc2)[C@@H](O)[C@@H]1OCCO" , can you help?
Response given: < 4.30
